- Test system: LTD4 evoked ileal contractions
- protocolNotes: LTD4 antagonism in isolated guinea pig ileum (inhibition of LTD4 evoked ileal contractions)
- Type: cell-based, guinea pig (male, Hartley)
- experimentalConditions: Cavia porcellus, compound concentration 1 × 10^-7 M, read-out: Percent inhibition of LTD4 evoked ileal contractions
Each item that follows carries a reported inhibition at 0.1 µM.

{"columns": ["molecule", "inhibition at 0.1 µM [%]"],
 "data": [
  ["CCCc1c(COc2ccc(C(=O)CCCc3nnn[nH]3)cc2)ccc(C(C)=O)c1O [Example 10]", 95],
  ["CCCc1c(COc2ccc(C(=O)CC3(CC(=O)O)CCCC3)cc2)ccc(C(C)=O)c1O [Example 24]", 85],
  ["CCCc1c(COc2ccc(C(=O)CCCC(=O)O)cc2)ccc(C(C)=O)c1O [Example 7]", 68],
  ["CCCc1c(COc2ccc(C(=O)CCc3nnn[nH]3)cc2)ccc(C(C)=O)c1O [Example 9]", 85],
  ["CCCc1c(COc2ccc(C(=O)CCCCC(=O)O)cc2)ccc(C(C)=O)c1O [Example 5]", 86],
  ["CCCc1c(COc2ccc(C(=O)CCCCCc3nnn[nH]3)cc2)ccc(C(C)=O)c1O [Example 19]", 80],
  ["CCCc1c(COc2cccc(C(=O)CCCc3nnn[nH]3)c2)ccc(C(C)=O)c1O [Example 18]", 84],
  ["CCCc1c(COc2ccc(C(=O)CC(C)(C)CC(=O)O)cc2)ccc(C(C)=O)c1O [Example 6]", 78],
  ["CCc1c(COc2ccc(C(=O)CC(C)(C)Cc3nnn[nH]3)cc2)ccc(C(C)=O)c1O [Example 16]", 95],
  ["CCc1c(COc2ccc(C(=O)CC(C)(C)CC(=O)O)cc2)ccc(C(C)=O)c1O [Example 23]", 88]
]}

Source of measurements: patent US4874777A
